experiment: Cmax in Sprague-Dawley rat at 6 mg/kg, po by HPLC/MS/MS analysis; type: ADME, organism-based; design: dose 6 mg/kg, route oral; settings: in vivo
readoutType: Cmax
Please format your answer as a value with the unit trailing.

Kindly indicate its recorded Cmax. Item: CC(C)N(Cc1ccccc1)C(=O)CN1C(=O)[C@@H](Cc2c[nH]c3ccccc23)c2nnc(-c3ccccc3)n2-c2ccccc21
14.6 ng/mL

###

test: Biliary clearance in Sprague-Dawley rat assessed as parent compound excretion into bile at 3 mg/kg, iv by HPLC/MS/MS analysis; type: ADME, organism-based; parameters: dose 3 mg/kg, route intravenous; conditions: read-out: Activity
readoutType: dose excreted
Answer format: number, then unit.

Give dose excreted for the following compound: CC(C)N(C(=O)CN1C(=O)[C@H](NC(=O)Nc2cccc(C(=O)O)c2)C(=O)N(c2ccccc2)c2ccccc21)c1ccccc1
65%
